# credit: paper PMC6539809

Overview of recorded melting point for various molecules
Reported metric: melting point (°C)

[[record]]
smiles_code = "O=C(NN1CCCC1)c1nn(-c2ccc(Cl)cc2Cl)c2c1CCOc1cc(Cl)ccc1-2"
reported_metric = "melting point"
value_reported = 175

[[record]]
smiles_code = "O=C(Nc1ccccc1)c1nn(-c2ccc(Cl)cc2Cl)c2c1CCOc1cc(Cl)ccc1-2"
reported_metric = "melting point"
value_reported = 130

[[record]]
smiles_code = "O=C(Nc1ccc(Cl)cc1)c1nn(-c2ccc(Cl)cc2Cl)c2c1CCOc1cc(Cl)ccc1-2"
reported_metric = "melting point"
value_reported = 239

[[record]]
smiles_code = "Cc1ccc(NC(=O)c2nn(-c3ccc(Cl)cc3Cl)c3c2CCOc2cc(Cl)ccc2-3)cc1"
reported_metric = "melting point"
value_reported = 181

[[record]]
smiles_code = "COc1ccc(NC(=O)c2nn(-c3ccc(Cl)cc3Cl)c3c2CCOc2cc(Cl)ccc2-3)cc1"
reported_metric = "melting point"
value_reported = 214


====

Target: CB1 receptor (Mus musculus)
Construct: from tissue; host or cells: mouse (CD1) brain minus cerebellum, membrane homogenate
Sequence (P47746 whole entry): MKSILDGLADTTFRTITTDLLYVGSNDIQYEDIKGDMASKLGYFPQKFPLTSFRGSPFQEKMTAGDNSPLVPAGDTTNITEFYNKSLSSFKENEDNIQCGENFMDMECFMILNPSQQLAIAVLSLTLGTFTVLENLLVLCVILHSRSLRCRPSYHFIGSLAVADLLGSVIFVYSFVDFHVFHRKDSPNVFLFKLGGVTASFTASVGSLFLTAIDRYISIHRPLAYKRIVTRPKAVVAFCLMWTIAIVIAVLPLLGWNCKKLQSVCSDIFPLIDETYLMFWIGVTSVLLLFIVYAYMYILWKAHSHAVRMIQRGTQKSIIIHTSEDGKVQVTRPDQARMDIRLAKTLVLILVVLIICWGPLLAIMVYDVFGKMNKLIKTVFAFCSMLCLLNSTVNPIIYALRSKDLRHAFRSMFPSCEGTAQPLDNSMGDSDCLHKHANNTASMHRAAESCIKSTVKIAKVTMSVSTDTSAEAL
Experiment: CB1 radioligand binding, [3H]-CP-55,940 competition in mouse brain (minus cerebellum) homogenate
Conditions: [3H]-CP 55,940, mouse brain (minus cerebellum) homogenate; mean ± standard error, five independent experiments in triplicate; read-out: KiCB1
Reported metric: Ki (nM)

[[record]]
smiles_code = "COc1ccc(NC(=O)c2nn(-c3ccc(Cl)cc3Cl)c3c2CCOc2cc(Cl)ccc2-3)cc1"
value_reported = 330

[[record]]
smiles_code = "O=C(Nc1ccccc1)c1nn(-c2ccc(Cl)cc2Cl)c2c1CCOc1cc(Cl)ccc1-2"
value_reported = 233

[[record]]
smiles_code = "O=C(Nc1ccc(C(F)(F)F)cc1)c1nn(-c2ccc(Cl)cc2Cl)c2c1CCOc1cc(Cl)ccc1-2"
value_reported = 459

[[record]]
smiles_code = "O=C(Nc1ccc(Cl)cc1)c1nn(-c2ccc(Cl)cc2Cl)c2c1CCOc1cc(Cl)ccc1-2"
value_reported = 318


====

Molecular target: CB2 receptor (Mus musculus, UniProt P47936)
Construct: from tissue; host or cells: mouse (CD1) spleen, membrane homogenate
Sequence (P47936 whole entry): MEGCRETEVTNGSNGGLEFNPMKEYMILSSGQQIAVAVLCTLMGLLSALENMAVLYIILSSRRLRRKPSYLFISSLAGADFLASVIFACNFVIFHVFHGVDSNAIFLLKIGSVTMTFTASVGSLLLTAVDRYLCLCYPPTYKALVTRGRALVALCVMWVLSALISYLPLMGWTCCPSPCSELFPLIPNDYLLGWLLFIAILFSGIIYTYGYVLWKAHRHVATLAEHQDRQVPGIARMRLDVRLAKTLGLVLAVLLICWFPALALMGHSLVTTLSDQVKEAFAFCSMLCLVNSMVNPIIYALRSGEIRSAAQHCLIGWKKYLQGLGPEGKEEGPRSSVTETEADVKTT
Assay: CB2 radioligand binding, [3H]-CP-55,940 competition in mouse spleen homogenate
Conditions: [3H]-CP-55,940, mouse spleen homogenate; mean ± standard error, five independent experiments in triplicate; read-out: KiCB2
Reported metric: Ki (µM)

[[record]]
smiles_code = "O=C(NN1CCCCCC1)c1nn(-c2ccc(Cl)cc2Cl)c2c1CCOc1cc(Cl)ccc1-2"
measurement_unit = "µM"
limit_qualifier = "="
value_reported = 2

[[record]]
smiles_code = "COc1ccc(NC(=O)c2nn(-c3ccc(Cl)cc3Cl)c3c2CCOc2cc(Cl)ccc2-3)cc1"
measurement_unit = "µM"
limit_qualifier = ">"
value_reported = 5

[[record]]
smiles_code = "O=C(Nc1ccc(Cl)cc1)c1nn(-c2ccc(Cl)cc2Cl)c2c1CCOc1cc(Cl)ccc1-2"
measurement_unit = "µM"
limit_qualifier = ">"
value_reported = 5

[[record]]
smiles_code = "Cc1ccc(NC(=O)c2nn(-c3ccc(Cl)cc3Cl)c3c2CCOc2cc(Cl)ccc2-3)cc1"
measurement_unit = "µM"
limit_qualifier = ">"
value_reported = 5

[[record]]
smiles_code = "O=C(Nc1ccccc1)c1nn(-c2ccc(Cl)cc2Cl)c2c1CCOc1cc(Cl)ccc1-2"
measurement_unit = "µM"
limit_qualifier = "="
value_reported = 4.12

[[record]]
smiles_code = "O=C(NN1CCCC1)c1nn(-c2ccc(Cl)cc2Cl)c2c1CCOc1cc(Cl)ccc1-2"
measurement_unit = "µM"
limit_qualifier = "="
value_reported = 4.5

[[record]]
smiles_code = "O=C(Nc1ccc(C(F)(F)F)cc1)c1nn(-c2ccc(Cl)cc2Cl)c2c1CCOc1cc(Cl)ccc1-2"
measurement_unit = "µM"
limit_qualifier = ">"
value_reported = 5


====

Overview of recorded melting point for various molecules
Reported metric: melting point

[[record]]
molecule = "O=C(Nc1ccc(C(F)(F)F)cc1)c1nn(-c2ccc(Cl)cc2Cl)c2c1CCOc1cc(Cl)ccc1-2"
value_reported = "249 to 250 °C"

[[record]]
molecule = "CC1(C)C2CCC(CNC(=O)c3nn(-c4ccc(Cl)cc4Cl)c4c3CCOc3cc(Cl)ccc3-4)C1C2 (stereo not drawn)"
value_reported = "142 to 143 °C"

[[record]]
molecule = "O=C(NN1CCCCCC1)c1nn(-c2ccc(Cl)cc2Cl)c2c1CCOc1cc(Cl)ccc1-2"
value_reported = "137 to 138 °C"

